Source listed as patent US7250157B2.

Could you please report measured Fold Induction of Tyrosinase Relative to Controls for the items listed next?
Test system: tyrosinase activity in S91 mouse melanoma cells
protocol: Induction of tyrosinase activity in S91 cells
assay conditions: 5 mM (Table 15)
Structures can show the parent of a compound that is named as a salt.
// units = X; emit number, no label

Exercise: Quick check: Fold Induction of Tyrosinase Relative to Controls of OCC1(CO)CC2C=CC1C2 (stereo not shown) ?
Key: 41.9

Exercise: Can you handle O=COC1CC2CCC1C2 (racemic) [± exo-2-norbornyl formate] next?
Key: 2.3

Exercise: Can you handle O=C(O)[C@@H]1[C@H](C(=O)O)[C@@H]2C=C[C@H]1C2 next?
Key: 1.0

Exercise: Can you handle O=C(O)CC1CC2CCC1C2 (stereo not shown) next?
Key: 12.9

====

Tested on: tyrosinase activity in S91 mouse melanoma cells
protocol: Induction of tyrosinase activity in S91 cells
assay conditions: 2.5 mM (Table 19)
Note that class boundaries on Fold Induction of Tyrosinase Relative to Controls are zone 1 = under 4 X, zone 2 = from 4 X up to 20 X, zone 3 = 20 X and over

Exercise: Lab log: CC1(C)C2CCC(CO)[C@]1(O)C2 (stereo in doubt) [(1R)-(−)-trans-pinane-1,10-diol] — assign Fold Induction of Tyrosinase Relative to Controls category
Key: zone 3

Exercise: Can you handle CC1(C)C2CCC1(C)C(O)C2 (stereo not drawn) [borneol] next?
Key: zone 1

Exercise: Can you handle CC1(C)C2CCC1(C)C(O)C2O (stereo not drawn) [2,3-trans-bornanediol] next?
Key: zone 3

Exercise: Can you handle CC1CCC2CC1C2(C)C [(1S)-(−)-α-pinane] next?
Key: zone 1

Exercise: Can you handle CC1CCC2CC1C2(C)C [(1R)-(−)-α-pinane] next?
Key: zone 1

Exercise: Can you handle CC1(C)[C@@H]2CC(=O)[C@@](C)(O)[C@H]1C2 [(1S,2S,5S,)-2-hydroxy-3-pinanone] next?
Key: zone 3

Exercise: Can you handle CC1CCC(C(C)(C)O)C(O)C1 (stereo not drawn) [cis-p-menthane-3,8-diol] next?
Key: zone 2

Exercise: Can you handle C[C@@H]1CC[C@@H](C(C)(C)O)[C@H](O)C1 (relative stereo) [trans-p-menthane-3,8-diol] next?
Key: zone 3

Exercise: Can you handle CC1=CC[C@@H](C(C)(C)O)CC1 [(−)-a-terpineol, (S)-p-menth-1-en-8-ol] next?
Key: zone 2

====

Test system: Cloudman S91 mouse melanoma cell line
protocol: Microscopic morphology (differentiation) of S91 cells
Format: cell-based
assay conditions: 50 mM
endpoint: Morphology Rounded Spindly (%)
// units = %; emit number, no label

Exercise: Quick check: Morphology Rounded Spindly of CC(O)CCO (stereo not drawn) [BD-1,3, 1,3-butanediol] ?
Key: 25

Exercise: Can you handle CC(O)CO (stereo not drawn) [1,2-propanediol, 1,2-Propanediol (Propylene Glycol)] next?
Key: 75

Exercise: Can you handle C[C@H](O)CO [PG-S-1,2, (S)-(+)-1,2-Propanediol] next?
Key: 75

Exercise: Can you handle OCC(O)CO [G, Glycerol] next?
Key: 100

Exercise: Can you handle OCCCO [PG-1,3, 1,3-propanediol] next?
Key: 75

Exercise: Can you handle CC(O)C(C)O (stereo not drawn) [BD-2,3, 2,3-butanediol] next?
Key: 25

====

Test system: tyrosinase activity in S91 mouse melanoma cells
protocol: Induction of tyrosinase activity in S91 cells
assay conditions: 2.5 mM (Table 16)
Tick true (1) if Fold Induction of Tyrosinase Relative to Controls is 6 X or greater. Tick false (0) if Fold Induction of Tyrosinase Relative to Controls is less than 6 X.

Exercise: Assess whether reported Fold Induction of Tyrosinase Relative to Controls for OC1CC2CCC1C2O (stereo not shown) [2,7-norbornanediol] sits at 6 X or higher.
Key: false (0)

Exercise: Can you handle OCC1CCC(CO)CC1 (stereo not shown) [1,4-cyclohexanedimethanol] next?
Key: false (0)

Exercise: Can you handle OCC1(CO)CC2C=CC1C2 (stereo not shown) [5-NBene-2,2-DM, 5-norbornene-2,2-dimethanol] next?
Key: true (1)

Exercise: Can you handle OCC(CO)(CO)CO [pentaerylthritol] next?
Key: false (0)

Exercise: Can you handle OCC1(O)CC2CCC1C2 (stereo not shown) [2-hydroxy-2-norbornanemethanol] next?
Key: true (1)

Exercise: Can you handle OCC1(CO)CC=CCC1 [3-cyclohexane-1,1-dimethanol] next?
Key: false (0)

====

System: Normal human epidermal melanocytes (NHEMs)
protocol: Melanin induction in normal human epidermal melanocytes
Assay type: cell-based
endpoint: Concentration Required for ≧1.5-fold Melanin Induction in NHEMs (mM)
// units = mM; emit number, no label

Exercise: Quick check: Concentration Required for ≧1.5-fold Melanin Induction in NHEMs of CC(C)(O)C(C)(C)O ?
Key: 50

Exercise: Can you handle CC(C)(C)C(O)CO (centres unmarked) next?
Key: 12.5

Exercise: Can you handle CC(O)CO (centres unmarked) next?
Key: 150

Exercise: Can you handle O[C@@H]1CCC[C@@H]1O [1,2-cs-CPD, 1,2-cis-cyclopentanediol] next?
Key: 50

Exercise: Can you handle Oc1cccnc1O next?
Key: 0.2

====

Test system: tyrosinase activity in S91 mouse melanoma cells
protocol: Induction of tyrosinase activity in S91 cells
assay conditions: 5 mM (Table 19)
Tick rule met if Fold Induction of Tyrosinase Relative to Controls is 40 X or greater. Tick rule not met if Fold Induction of Tyrosinase Relative to Controls is less than 40 X.

Exercise: Assess whether reported Fold Induction of Tyrosinase Relative to Controls for C[C@@H]1CC[C@@H](C(C)(C)O)[C@H](O)C1 (relative stereo) [trans-p-menthane-3,8-diol] sits at 40 X or higher.
Key: rule not met

Exercise: Can you handle CC1CCC2CC1C2(C)C [(1S)-(−)-α-pinane] next?
Key: rule not met

Exercise: Can you handle CC1CCC(C(C)(C)O)C(O)C1 (stereo not drawn) [cis-p-menthane-3,8-diol] next?
Key: rule not met

Exercise: Can you handle CC1(C)C2CCC(CO)[C@]1(O)C2 (stereo in doubt) [(1R)-(−)-trans-pinane-1,10-diol] next?
Key: rule not met

Exercise: Can you handle CC1(C)[C@@H]2C[C@H]1[C@@](C)(O)[C@@H](O)C2 (relative stereo) [2,3-cs/ex-PD] next?
Key: rule met

Exercise: Can you handle CC1(C)[C@@H]2CC(=O)[C@@](C)(O)[C@H]1C2 [(1S,2S,5S,)-2-hydroxy-3-pinanone] next?
Key: rule met

====

Could you please report measured Fold Induction of Tyrosinase Relative to Controls for the items listed next?
Tested on: tyrosinase activity in S91 mouse melanoma cells
protocol: Induction of tyrosinase activity in S91 cells
assay conditions: 5 mM (Table 16)
// units = X; emit number, no label

Exercise: Query the reported Fold Induction of Tyrosinase Relative to Controls for tyrosinase activity in S91 mouse melanoma cells; item: OC1CC2CCC1C2O (stereo not drawn) [2,7-norbornanediol]
Key: 3.5

Exercise: Can you handle OCC1CCC(CO)CC1 (stereo not drawn) [1,4-cyclohexanedimethanol] next?
Key: 3.2

Exercise: Can you handle OCC1(CO)CC2C=CC1C2 (stereo not drawn) [5-NBene-2,2-DM, 5-norbornene-2,2-dimethanol] next?
Key: 61.6

Exercise: Can you handle OCC1(O)CC2CCC1C2 (stereo not drawn) [2-hydroxy-2-norbornanemethanol] next?
Key: 45.0

Exercise: Can you handle OCC(CO)(CO)CO [pentaerylthritol] next?
Key: 1.5

Exercise: Can you handle OCC1(CO)CC=CCC1 [3-cyclohexane-1,1-dimethanol] next?
Key: 7.0

====

System: Cloudman S91 mouse melanoma cell line
protocol: Melanin content of S91 cells after treatment with test compound
Type: cell-based
assay conditions: 50 mM
Protocol: The Cloudman S91 mouse melanoma cell line was obtained from American Type Culture Collection (ATCC). […] For testing propylene glycol and analogues for induction of melanogenesis, S91 cells were plated at 10^5 cells/35 mm dish in 10% calf serum. […] Following this microscopic examination, cells were detached from dishes by trypsin. The time required for detachment by trypsin was recorded as an additional indicator of the phenotypic effects of test compounds. […] Melanin was expressed as pg melanin/cell.
Could you please report measured pg Melanin/Cell for the items listed next?
// units = pg Melanin/Cell; emit number, no label

Exercise: Quick check: pg Melanin/Cell of CC(O)CO (stereo not drawn) [1,2-propanediol, 1,2-Propanediol (Propylene Glycol)] ?
Key: 15.6

Exercise: Can you handle CC(O)C(C)O (stereo not drawn) [BD-2,3, 2,3-butanediol] next?
Key: 15.6

Exercise: Can you handle CC(O)CCO (stereo not drawn) [BD-1,3, 1,3-butanediol] next?
Key: 15.5

Exercise: Can you handle OCC(O)CO [G, Glycerol] next?
Key: 11.2

Exercise: Can you handle C[C@H](O)CO [PG-S-1,2, (S)-(+)-1,2-Propanediol] next?
Key: 17.1

Exercise: Can you handle OCCCO [PG-1,3, 1,3-propanediol] next?
Key: 20.4
